- System: MALME-3M melanoma
- test-details: NCI-60 one-dose screen, 48 h (100 = growth as untreated, 0 = no growth, -100 = all killed)
- condition-description: 10 µM unless noted
About 83,000 compounds went through this panel and 20% of them were active in at least one assay; those are over-represented in the sample as a whole.
readout-label: growth (%)
Numbers only, in %.

Some entries whose results are on file:
CC[N+](C)(C)N; 112
O=C1C=C(OCC=C(C(F)(F)F)C(F)(F)F)c2ccccc2C1=O; -34.8
CCOC(=O)c1c(C)oc2ncnc(Nc3ccc(C(=O)NCCc4ccccc4)cc3)c12; 89.5

Answer for every listed entry: what is its growth? The entries follow.
1. Cc1c(Cc2ccccc2)c(=O)oc2c(C)c(OCC(=O)n3nc(C#N)cc3N)ccc12
2. O=C(Nc1ccc(-n2cc(-c3ccncc3)c(-c3ccc(Cl)c(O)c3)n2)cc1)c1ccc(Cl)c(Cl)c1

## Result
99.5
43.6

Answer for every listed entry: what is its growth? The entries follow.
1. COc1cc(CCNc2cnc3cc(N)cc(N)c3n2)cc(OC)c1
2. C/C(=N\Nc1ccc(Cl)cn1)c1ccc2ccccc2n1
3. COc1cccc(NC(=O)NCCNc2nccc(-c3c(-c4ccc(F)cc4)nc4sccn34)n2)c1
4. CCCC[N+](C)(N)CCCC
5. COC(=O)c1ccc2[nH]c(O)c(C(=Nc3ccc(N(C)C(=O)CN4CCN(C)CC4)cc3)c3ccc(C)cc3)c2c1

## Result
146
10.6
140
107
-94.6

## Task Quick one: growth of `CCOC(=O)c1sc(NS(=O)(=O)c2ccccc2)nc1C` ?
## Result 120

From: PubChem BioAssay (NCI)
